Molecular target: AMPK
Assay: AMPK activation, enzyme-linked immunosorbent assay
Type: biochemical
Conditions: Table 8, compounds of Table 1
Reported EC50 values follow for various molecules

Exercise: Sample O=C(N[C@H]1CCNC1)c1cc2cc(OC3CCN(Cc4ccc(Cl)cc4)CC3)ccc2o1 [Compound 1-128] — what was its EC50?
Solution: > 10000 nM

Exercise: Sample O=C(NC1CCN(Cc2ccncc2)CC1)c1cc2cc(OC3CCN(c4ccc(C(F)(F)F)cc4)CC3)ccc2o1 [Compound 1-76] — what was its EC50?
Solution: 100 to 500 nM

Exercise: Sample O=C(NC1CCN(Cc2ccc(OC(F)(F)F)cc2)CC1)c1cc2cc(O[C@@H]3CCN(Cc4ccc(-n5cccn5)cc4)C[C@H]3F)ccc2o1 [Compound 1-169] — what was its EC50?
Solution: < 100 nM

Exercise: Sample N#Cc1ccc(CN2CCC(NC(=O)c3cc4cc(OC5CCN(Cc6ccc(C(F)(F)F)cc6)CC5)ccc4o3)CC2)cc1 [Compound 1-174] — what was its EC50?
Solution: < 100 nM

Exercise: Sample CN(C(=O)c1cc2cc(OC3CCN(c4ccc(C(F)(F)F)cc4)CC3)ccc2o1)C1CCN(Cc2ccc(C#N)cc2)CC1 [Compound 1-107] — what was its EC50?
Solution: < 100 nM

----------
Reported pEC50 values follow for various compounds
Target: AMPK
Assay: AMPK activation, enzyme-linked immunosorbent assay
Type: biochemical
Settings: Table 8, compounds of Table 1
pEC50: −log10 of the molar value.

Exercise: Under AMPK: pEC50 value of O=C(NC1CCN(Cc2ccncc2)CC1)c1cccc(OC2CCN(c3ccc(C(F)(F)F)cc3)CC2)n1 ?
Solution: 5.30 to 6.00

Exercise: Under AMPK: pEC50 value of N#Cc1ccc(CN2CC[C@H](NC(=O)c3ccc(OC4CCN(c5ccc(C(F)(F)F)cc5)CC4)cn3)C2)cc1 ?
Solution: > 7.00

Exercise: Under AMPK: pEC50 value of O=C(NC1CCN(Cc2cccnc2)CC1)c1cc2cc(OC3CCN(c4ccc(C(F)(F)F)cc4)CC3)ccc2o1 ?
Solution: > 7.00

Exercise: Under AMPK: pEC50 value of N#Cc1ccc(CN2CCC(Oc3ccc(S(=O)(=O)NC4CCN(Cc5ccncc5)CC4)cn3)CC2)cc1 ?
Solution: 6.30 to 7.00

Exercise: Under AMPK: pEC50 value of O=S(=O)(NC1CCN(Cc2ccc(C(F)(F)F)cc2)CC1)c1ccc(OC2CCN(c3ccc(C(F)(F)F)cc3)CC2)nc1 ?
Solution: > 7.00

Exercise: Under AMPK: pEC50 value of O=C(NC1CCN(S(=O)(=O)c2cccnc2)CC1)c1cc2ccc(OC3CCN(c4ccc(C(F)(F)F)cc4)CC3)cc2o1 ?
Solution: 6.30 to 7.00

----------
Reported EC50 values follow for various compounds
Target: AMPK
Test: AMPK activation, enzyme-linked immunosorbent assay
Assay type: biochemical
Conditions: Table 14, compounds of Table 7

// below: answered compounds
COMPOUND: COc1ccc(C(=O)C2CCCN(C(=O)c3ccc(C(=O)NC4CCN(Cc5ccc(F)cc5)CC4)cn3)C2)cc1 (stereo not shown) [Compound 7-9]
ASSAY_RESULT: 1000 to 10000 nM
//
COMPOUND: N#Cc1ccc(CN2CCC(NC(=O)c3ccc(C(=O)N4CCC(C(=O)c5ccc(-n6cccn6)cc5)CC4)nc3)[C@H](F)C2)cc1 (stereo partly shown) [Compound 7-68]
ASSAY_RESULT: < 1000 nM

Exercise: Under AMPK: EC50 value of COc1ccc(C(=O)C2CCN(C(=O)c3ccc(C(=O)N[C@H]4CCN(Cc5ccc(C#N)cc5)C[C@@H]4F)cn3)CC2)cc1 (single isomer, unassigned) [Compound 7-107] ?
Solution: < 1000 nM

Exercise: Under AMPK: EC50 value of COc1ccc(C(=O)C2CCN(C(=O)c3ccc(C(=O)NC4CCN(Cc5ccc(C#N)c(OC)c5)C[C@@H]4C)cn3)CC2)cc1 (stereo partly shown) [Compound 7-99] ?
Solution: < 1000 nM

Exercise: Under AMPK: EC50 value of COc1ccc(C(=O)C2CCN(C(=O)c3ccc(C(=O)NC4CCN(Cc5ccc(C#N)c(F)c5)CC4(C)C)cn3)CC2)cc1 (stereo not shown) [Compound 7-86] ?
Solution: < 1000 nM

Exercise: Under AMPK: EC50 value of COc1ccc(CN2CCC(NC(=O)c3ccc(C(=O)N4CCC(C(=O)c5ccc(N6CCCC6)cc5)CC4)nc3)CC2)cc1 [Compound 7-109] ?
Solution: < 1000 nM

Exercise: Under AMPK: EC50 value of Cc1cc(OC2CCN(C(=O)c3ccc(C(=O)NC4CCN(Cc5ccc(C#N)cc5)CC4)cn3)CC2)ccc1S(C)(=O)=O [Compound 7-13] ?
Solution: 1000 to 10000 nM

Exercise: Under AMPK: EC50 value of COc1ccc(C(=O)C2CCN(C(=O)c3ccc(C(=O)NC4CCN(Cc5ccc(C#N)cc5)C[C@@H]4C)cn3)CC2)cc1 (stereo partly shown) [Compound 7-78] ?
Solution: < 1000 nM

Exercise: Under AMPK: EC50 value of N#Cc1ccc(CN2CCC(NC(=O)c3ccc(C(=O)N4CCC(Oc5ccc(S(=O)(=O)C(F)(F)F)cc5)CC4)nc3)CC2)cc1 [Compound 7-118] ?
Solution: < 1000 nM

Exercise: Under AMPK: EC50 value of COc1ccc(C(=O)C2CCN(C(=O)c3ccc(C(=O)NC4CCN(Cc5ccc(C#N)cc5)CC4(C)C)cn3)CC2)cc1 (stereo not shown) [Compound 7-84] ?
Solution: < 1000 nM

Exercise: Under AMPK: EC50 value of COc1ccc(C(=O)C2CCN(C(=O)c3ccc(C(=O)NC4CCN(Cc5ccc(OC)c(C#N)c5)CC4(C)C)cn3)CC2)cc1 (stereo not shown) [Compound 7-90] ?
Solution: 1000 to 10000 nM

Exercise: Under AMPK: EC50 value of COc1ccc(C(=O)C2CCN(C(=O)c3ccc(C(=O)NC4CCN(Cc5ccc(OC(F)(F)F)cc5)CC4(C)C)cn3)CC2)cc1 (stereo not shown) [Compound 7-85] ?
Solution: < 1000 nM

Exercise: Under AMPK: EC50 value of O=C(Nc1ccc(Oc2ccc(S(F)(F)(F)(F)F)cc2)nc1)c1ccc(C(=O)N2CCC(C(=O)c3ccc(N4CCCC4)cc3)CC2)cn1 [Compound 7-4] ?
Solution: < 1000 nM

Exercise: Under AMPK: EC50 value of N#Cc1ccc(CN2CCC(NC(=O)c3ccc(C(=O)N4CCC(C(=O)c5ccc(OC(F)(F)F)cc5)CC4)nc3)[C@H](F)C2)cc1 (stereo partly shown) [Compound 7-71] ?
Solution: < 1000 nM

Exercise: Under AMPK: EC50 value of Cn1cnc2cc(OC3CCN(C(=O)c4ccc(C(=O)NC5CCN(Cc6ccc(C#N)cc6)CC5)cn4)CC3)ccc21 [Compound 7-38] ?
Solution: 1000 to 10000 nM

Exercise: Under AMPK: EC50 value of COc1ccc(C(=O)C2CCN(C(=O)c3ccc(C(=O)NC4CCN(Cc5cccc(C#N)c5)C[C@@H]4F)cn3)CC2)cc1 (stereo partly shown) [Compound 7-27] ?
Solution: < 1000 nM

Exercise: Under AMPK: EC50 value of CC(=O)c1ccc(Oc2ccc(NC(=O)c3ccc(C(=O)N4CCC(Oc5ccc6sc(C)nc6c5)CC4)nc3)cn2)cc1 [Compound 7-20] ?
Solution: < 1000 nM

Exercise: Under AMPK: EC50 value of COc1ccc(C(=O)C2CCN(C(=O)c3ccc(C(=O)N[C@@H]4CCN(Cc5ccc(C#N)cc5)C[C@H]4F)cn3)CC2)cc1 (single isomer, unassigned) [Compound 7-106] ?
Solution: < 1000 nM

Exercise: Under AMPK: EC50 value of N#Cc1ccc(CN2CCC(NC(=O)c3ccc(C(=O)N4CCC(Oc5ccc(C#N)cc5)CC4)nc3)[C@@H](F)C2)cc1 (stereo partly shown) [Compound 7-67] ?
Solution: < 1000 nM

Exercise: Under AMPK: EC50 value of COc1ccc(CN2CCC(NC(=O)c3ccc(C(=O)N4CCC(Oc5ccc(C(=O)C6CC6)cc5)CC4)nc3)CC2)cc1 [Compound 7-120] ?
Solution: < 1000 nM

Exercise: Under AMPK: EC50 value of COc1ccc(C(=O)C2CCN(C(=O)c3ccc(C(=O)NC4CCN(Cc5ccc(C)c(C#N)c5)C[C@H]4F)cn3)CC2)cc1 (stereo partly shown) [Compound 7-58] ?
Solution: < 1000 nM

Exercise: Under AMPK: EC50 value of COc1ccc(C(=O)C2CCN(C(=O)c3ccc(C(=O)NC4CCN(Cc5ccc(C#N)c(F)c5)C[C@@H]4C)cn3)CC2)cc1 (stereo partly shown) [Compound 7-98] ?
Solution: < 1000 nM

----------
Reported EC50 values follow for various compounds
Biological target: AMPK
Experiment: AMPK activation, enzyme-linked immunosorbent assay
Format: biochemical
Conditions: Table 8, compounds of Table 1

// below: answered compounds
COMPOUND: O=C(NC1CCN(Cc2ccccn2)CC1)c1cc2ccc(OC3CCN(c4ccc(OC(F)(F)F)cc4)CC3)cc2o1
SUBJECT_OF_TEST: AMPK
EC50: 500 to 1000 nM
--
COMPOUND: N#Cc1ccc(CN2CCC(NS(=O)(=O)c3ccc(OC4CCN(c5ccc(C(F)(F)F)cc5)CC4)nc3)CC2)cc1
SUBJECT_OF_TEST: AMPK
EC50: 5000 to 10000 nM
--
COMPOUND: O=C(NC1CCN(Cc2ccc3ccccc3c2)CC1)c1ccc(OC2CCN(c3ccc(C(F)(F)F)cc3)CC2)cn1
SUBJECT_OF_TEST: AMPK
EC50: 500 to 1000 nM
--
COMPOUND: O=C(NC1CCN(Cc2ccncc2)CC1)c1cc2cc(OC3CCN(c4ccc(OC(F)(F)F)cc4)CC3)ccc2s1
SUBJECT_OF_TEST: AMPK
EC50: < 100 nM
--
COMPOUND: O=C(N[C@H]1CCNC1)c1ccc(OC2CCN(c3ccc(C(F)(F)F)cc3)CC2)cn1
SUBJECT_OF_TEST: AMPK
EC50: > 10000 nM
--
COMPOUND: O=C(NC1CCN(S(=O)(=O)c2cccnc2)CC1)c1cc2ccc(OC3CCN(c4ccc(OC(F)(F)F)cc4)CC3)cc2o1
SUBJECT_OF_TEST: AMPK
EC50: 100 to 500 nM
--
COMPOUND: N#Cc1ccc(CN2CCC(Oc3ccc4oc(C(=O)NC5CCN(Cc6ccccc6)CC5)cc4c3)CC2)cc1 [Compound 1-114]
SUBJECT_OF_TEST: AMPK
EC50: 100 to 500 nM
--
COMPOUND: O=C(NC1CCNCC1)c1cc2ccc(OC3CCN(c4ccc(C(F)(F)F)cc4)CC3)cc2o1
SUBJECT_OF_TEST: AMPK
EC50: 5000 to 10000 nM

Exercise: Sample N#Cc1ccc(CN2CCC(NC(=O)c3cc4ccc(OC5CCN(c6ccc(C(F)(F)F)cc6)CC5)cc4s3)CC2)cc1 — what was its EC50?
Solution: < 100 nM

Exercise: Sample N#Cc1ccc(CN2CCC(NC(=O)c3cc4ccc(OC5CCN(c6ccc(C(F)(F)F)cc6)CC5)cc4o3)CC2)cc1 — what was its EC50?
Solution: < 100 nM

Exercise: Sample CC(C)(C)OC(=O)N1CCC(NC(=O)c2cc3ccc(OC4CCN(c5ccc(C(F)(F)F)cc5)CC4)cc3o2)CC1 — what was its EC50?
Solution: 100 to 500 nM

Exercise: Sample N#Cc1ccc(CN2CCC(NC(=O)c3cc4ccc(OC5CCN(c6ccc(OC(F)(F)F)cc6)CC5)cc4o3)CC2)cc1 — what was its EC50?
Solution: < 100 nM

Exercise: Sample COC(=O)c1ccc(CN2CCC(NC(=O)c3ccc(OC4CCN(c5ccc(C(F)(F)F)cc5)CC4)cn3)CC2)cc1 — what was its EC50?
Solution: < 100 nM

Exercise: Sample O=C(N[C@H]1CCN(Cc2ccc(F)cc2)C1)c1ccc(OC2CCN(c3ccc(C(F)(F)F)cc3)CC2)cn1 — what was its EC50?
Solution: 100 to 500 nM
